test system: NCI-H929 complex spheroids, viability % test/control; assay: Anticancer human tumor NCI-H929 cell line growth inhibition [RAS]; conditions: second compound 3.16 µM; first compound 1 µM; stronger effect = lower value;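 note: compound exposure lasted seven days before viability was read; 100% = DMSO vehicle control viability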
Readout: viability, T/C (%)
I only need the number, in %, no unit after it.

Molecule	viability, T/C [%]
CC(=O)OC12COC1CC(O)C1(C)C(=O)C(O)C3=C(C)C(OC(=O)C(O)C(NC(=O)OC(C)(C)C)c4ccccc4)CC(O)(C(OC(=O)c4ccccc4)C21)C3(C)C (centres undefined) + C#Cc1c(F)ccc2cc(O)cc(-c3ncc4c(N5CC6CCC(C5)N6)nc(OCC56CCCN5CC(F)C6)nc4c3F)c12	0.71
NC1c2ccccc2OC12CCN(c1cnc3c(N4CCCc5ncccc54)n[nH]c3n1)CC2 (centres undefined) + C#Cc1c(F)ccc2cc(O)cc(-c3ncc4c(N5CC6CCC(C5)N6)nc(OCC56CCCN5CC(F)C6)nc4c3F)c12	101
CC1(O)CCCC1n1c(=O)c(C(F)F)cc2cnc(NC3CCN(S(C)(=O)=O)CC3)nc21 (centres undefined) + C#Cc1c(F)ccc2cc(O)cc(-c3ncc4c(N5CC6CCC(C5)N6)nc(OCC56CCCN5CC(F)C6)nc4c3F)c12	12.5

Consider now this further molecule.
## Input Bench note: what viability, T/C did C[C@@H](NC(=O)c1ncnc(N)c1Cl)c1ncc(C(=O)Nc2cc(C(F)(F)F)c(Cl)cn2)s1 + C#Cc1c(F)ccc2cc(O)cc(-c3ncc4c(N5CC6CCC(C5)N6)nc(OCC56CCCN5CC(F)C6)nc4c3F)c12 show?
## Output 90.7
